Target: Met (Homo sapiens)
Sequence (P08581 25-1390): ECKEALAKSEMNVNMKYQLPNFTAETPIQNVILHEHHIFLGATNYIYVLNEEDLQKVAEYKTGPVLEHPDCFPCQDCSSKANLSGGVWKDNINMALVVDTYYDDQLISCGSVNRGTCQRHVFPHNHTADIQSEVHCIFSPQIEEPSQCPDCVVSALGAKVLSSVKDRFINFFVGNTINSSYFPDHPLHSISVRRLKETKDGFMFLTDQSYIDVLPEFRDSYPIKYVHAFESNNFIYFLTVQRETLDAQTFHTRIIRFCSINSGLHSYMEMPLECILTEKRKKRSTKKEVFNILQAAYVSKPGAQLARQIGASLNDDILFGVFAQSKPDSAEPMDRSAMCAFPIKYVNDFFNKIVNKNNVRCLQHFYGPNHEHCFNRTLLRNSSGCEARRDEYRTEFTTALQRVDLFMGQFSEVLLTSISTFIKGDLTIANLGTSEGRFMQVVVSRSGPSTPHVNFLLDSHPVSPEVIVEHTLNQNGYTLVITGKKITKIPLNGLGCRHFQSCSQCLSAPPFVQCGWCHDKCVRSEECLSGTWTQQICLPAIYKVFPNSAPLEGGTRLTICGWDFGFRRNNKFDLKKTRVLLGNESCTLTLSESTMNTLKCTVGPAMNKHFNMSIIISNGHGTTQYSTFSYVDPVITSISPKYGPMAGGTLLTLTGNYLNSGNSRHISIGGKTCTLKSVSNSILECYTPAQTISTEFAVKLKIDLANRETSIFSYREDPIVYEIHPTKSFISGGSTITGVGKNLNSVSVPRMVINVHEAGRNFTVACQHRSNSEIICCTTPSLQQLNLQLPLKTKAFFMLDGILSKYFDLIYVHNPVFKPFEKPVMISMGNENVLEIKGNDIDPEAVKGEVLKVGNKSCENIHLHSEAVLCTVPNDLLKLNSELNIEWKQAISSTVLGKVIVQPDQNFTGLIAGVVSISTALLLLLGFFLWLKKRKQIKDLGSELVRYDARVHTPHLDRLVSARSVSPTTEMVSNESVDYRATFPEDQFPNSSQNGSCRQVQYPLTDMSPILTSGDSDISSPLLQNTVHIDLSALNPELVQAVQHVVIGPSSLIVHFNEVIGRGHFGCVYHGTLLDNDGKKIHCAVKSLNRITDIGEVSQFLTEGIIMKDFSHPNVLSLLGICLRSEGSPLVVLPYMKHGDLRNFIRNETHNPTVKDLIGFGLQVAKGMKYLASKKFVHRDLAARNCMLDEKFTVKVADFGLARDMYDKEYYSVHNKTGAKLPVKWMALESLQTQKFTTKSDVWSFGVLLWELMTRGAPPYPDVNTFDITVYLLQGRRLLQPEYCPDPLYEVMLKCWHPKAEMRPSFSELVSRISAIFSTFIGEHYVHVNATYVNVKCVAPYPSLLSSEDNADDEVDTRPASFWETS
pKd: −log10 of the molar value.
Recorded pKd for the following compounds

CCOc1cn(-c2cnccn2)nc1C(=O)Nc1cc(C)c(Oc2ccnc3cc(OC)c(OC)cc23)cn1: > 7.00
CCOc1cn(-c2cnccc2C(C)=O)nc1C(=O)Nc1ccc(Oc2ccnc3cc(OC)c(OC)cc23)cn1: > 7.00
CCOc1cn(C2CCOC2)nc1C(=O)Nc1ccc(Oc2ccnc3cc(OC)c(OC)cc23)cn1 (stereo not shown): 6.00 to 7.00
CCOc1cnn(C2CCCN(C)C2)c1C(=O)Nc1ccc(Oc2ccnc3cc(OC)c(OC)cc23)cc1F (stereo not shown): ≤ 6.00
CCOc1cnn(-c2cncn2C)c1C(=O)Nc1ccc(Oc2ccnc3cc(OC)c(OC)cc23)cn1: 6.00 to 7.00
CCOc1cn(C2CCCN(C)C2)nc1C(=O)Nc1ccc(Oc2ccnc3cc(OC)c(OC)cc23)cc1F (stereo not shown): 6.00 to 7.00

Pending compound:
[in] # get_value(readout='pKd', item= CCOc1cn(-c2cncc(C#N)n2)nc1C(=O)Nc1ccc(Oc2ccnc3cc(OC)c(OC)cc23)cn1 )
[out] ≤ 6.00

* * *

Molecular target: Mer (Homo sapiens)
Sequence (Q12866 21-999): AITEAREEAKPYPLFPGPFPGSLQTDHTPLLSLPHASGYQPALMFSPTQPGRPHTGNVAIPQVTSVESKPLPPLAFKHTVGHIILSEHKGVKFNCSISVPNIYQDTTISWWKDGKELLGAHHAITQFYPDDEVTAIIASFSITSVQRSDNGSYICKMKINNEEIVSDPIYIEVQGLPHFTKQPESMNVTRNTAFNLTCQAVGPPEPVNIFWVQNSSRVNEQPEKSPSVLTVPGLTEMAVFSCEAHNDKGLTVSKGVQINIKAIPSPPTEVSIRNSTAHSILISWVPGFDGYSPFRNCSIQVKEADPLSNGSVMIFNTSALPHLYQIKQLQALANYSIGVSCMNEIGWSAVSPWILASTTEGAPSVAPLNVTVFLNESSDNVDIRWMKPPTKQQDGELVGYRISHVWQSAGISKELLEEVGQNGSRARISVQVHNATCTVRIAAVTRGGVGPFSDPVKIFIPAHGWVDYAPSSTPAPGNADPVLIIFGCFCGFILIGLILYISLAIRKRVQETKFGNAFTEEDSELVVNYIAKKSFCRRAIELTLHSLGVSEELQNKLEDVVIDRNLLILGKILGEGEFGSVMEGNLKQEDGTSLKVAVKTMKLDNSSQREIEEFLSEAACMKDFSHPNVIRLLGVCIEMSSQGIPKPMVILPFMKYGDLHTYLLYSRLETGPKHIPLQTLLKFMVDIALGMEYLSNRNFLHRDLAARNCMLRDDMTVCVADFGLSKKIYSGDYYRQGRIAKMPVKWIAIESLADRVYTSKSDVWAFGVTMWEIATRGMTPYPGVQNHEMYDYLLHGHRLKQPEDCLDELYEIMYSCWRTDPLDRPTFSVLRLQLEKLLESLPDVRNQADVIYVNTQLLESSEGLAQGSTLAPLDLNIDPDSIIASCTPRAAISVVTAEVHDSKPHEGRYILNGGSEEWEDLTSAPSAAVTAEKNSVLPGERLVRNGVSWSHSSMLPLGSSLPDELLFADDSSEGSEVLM
Recorded Kd for the following compounds

Example entries begin here.
CCOc1cn(-c2cnccc2Cl)nc1C(=O)Nc1ccc(Oc2ccnc3cc(OC)c(OC)cc23)cc1F: < 100 nM
CCOc1cnn(-c2cnc(N)nc2)c1C(=O)Nc1ccc(Oc2ccnc3cc(OC(C)C)c(OC)cc23)cc1F: 100 to 1000 nM
COc1cc2nccc(Oc3ccc(NC(=O)c4nn(-c5cnc(Cl)cn5)cc4OCC(F)(F)F)nc3)c2cc1OC: < 100 nM
CCOc1cn(-c2ccc(C#N)nc2)nc1C(=O)Nc1ccc(Oc2ccnc3cc(OC)c(OC)cc23)cn1: ≥ 1000 nM
CCOc1cn(-c2ccc(OC(F)(F)F)cc2Cl)nc1C(=O)Nc1ccc(Oc2ccnc3cc(OC)c(OC(F)(F)F)cc23)cn1: 100 to 1000 nM

[in] Lab note: need Kd with Mer (Homo sapiens) for entry CCOc1cn(-c2ccsc2)nc1C(=O)Nc1ccc(Oc2ccnc3cc(OC)c(OC)cc23)cn1 , please look it up.
[out] < 100 nM

[in] Lab note: need Kd with Mer (Homo sapiens) for entry CCOc1cn(-c2cnc(N)nc2)nc1C(=O)Nc1ccc(Oc2ccnc3cc(OC(C)C)c(OC)cc23)cc1F , please look it up.
[out] < 100 nM

[in] Lab note: need Kd with Mer (Homo sapiens) for entry CCOc1cn(-c2ccc(C(C)(C)C)cc2)nc1C(=O)Nc1ccc(Oc2ccnc3cc(OC)c(OC)cc23)cn1 , please look it up.
[out] < 100 nM

[in] Lab note: need Kd with Mer (Homo sapiens) for entry CCOc1cn(CC)nc1C(=O)Nc1ccc(Oc2ccnc3cc(OC)c(OC)cc23)cn1 , please look it up.
[out] < 100 nM

[in] Lab note: need Kd with Mer (Homo sapiens) for entry CCC(C)Oc1cc2nccc(Oc3ccc(NC(=O)c4nn(-c5cnc(N)nc5)cc4OCC(F)(F)F)nc3)c2cc1OC (centres unmarked) , please look it up.
[out] < 100 nM

[in] Lab note: need Kd with Mer (Homo sapiens) for entry CCOc1cn(-c2ccc(C(F)(F)F)cc2C(F)(F)F)nc1C(=O)Nc1ccc(Oc2ccnc3cc(OC)c(OC)cc23)cn1 , please look it up.
[out] < 100 nM

[in] Lab note: need Kd with Mer (Homo sapiens) for entry CCOc1cn(-c2cncnc2N2CCCC2)nc1C(=O)Nc1ccc(Oc2ccnc3cc(OC)c(OC)cc23)cn1 , please look it up.
[out] 100 to 1000 nM

[in] Lab note: need Kd with Mer (Homo sapiens) for entry CCOc1cn(-c2ccc(C(C)C)cc2F)nc1C(=O)Nc1ccc(Oc2ccnc3cc(OC)c(OC)cc23)cn1 , please look it up.
[out] < 100 nM

[in] Lab note: need Kd with Mer (Homo sapiens) for entry CCOc1cnn(CCc2cccnc2)c1C(=O)Nc1ccc(Oc2ccnc3cc(OC)c(OC)cc23)cn1 , please look it up.
[out] < 100 nM

[in] Lab note: need Kd with Mer (Homo sapiens) for entry CCOc1cn(-c2cnccc2CO)nc1C(=O)Nc1ccc(Oc2ccnc3cc(OC(C)C)c(OC)cc23)cc1F , please look it up.
[out] < 100 nM

[in] Lab note: need Kd with Mer (Homo sapiens) for entry CCOc1cn(-c2cccnc2)nc1C(=O)Nc1ccc(Oc2ccnc3cc(OC(C)CC)c(OC)cc23)cn1 (centres unmarked) , please look it up.
[out] < 100 nM

[in] Lab note: need Kd with Mer (Homo sapiens) for entry CCOc1cn(-c2ccc(F)cc2C)nc1C(=O)Nc1cnc(Oc2ccnc3cc(OC)c(OC)cc23)cn1 , please look it up.
[out] ≥ 1000 nM

[in] Lab note: need Kd with Mer (Homo sapiens) for entry CCOc1cn(-c2ccc(F)cc2C(C)C)nc1C(=O)Nc1ccc(Oc2ccnc3cc(OC)c(OC)cc23)cn1 , please look it up.
[out] < 100 nM

[in] Lab note: need Kd with Mer (Homo sapiens) for entry CCOc1cn(-c2ccn(C)c2)nc1C(=O)Nc1ccc(Oc2ccnc3cc(OC)c(OC)cc23)cn1 , please look it up.
[out] < 100 nM

[in] Lab note: need Kd with Mer (Homo sapiens) for entry CCOc1cn(C)nc1C(=O)Nc1ccc(Oc2ccnc3cc(OC)c(OC)cc23)cn1 , please look it up.
[out] < 100 nM
